Reported Normal melting temperature values are given for each entry in this list.
Conditions: Crystal; visual observation
Unit °C implied. Number only.

Study these solved cases before continuing.
> print(dat)
                                   compound  unit.symbol  test.value
1  CC(=O)N[C@@H](CC(N)=O)C(N)=O [(S)-2-acetamidosuccinamide]           °C         244
2  CC(=O)N[C@@H](CCCCN)C(N)=O.Cl [(S)-2-acetamido-6-aminohexanamide hydrochloride]           °C       144.4
3  CC(=O)N[C@@H](CCC(N)=O)C(N)=O [(S)-2-acetamidopentanediamide]           °C       192.4

Shifting focus to the compound that follows.
The reported Normal melting temperature of the compound CC(=O)NC(=O)[C@@H](N)Cc1ccc(O)cc1 [N-Acetyl-L-tyrosinamide] was 225

Source of measurements: the NIST ThermoML archive (doi:10.1016/j.jct.2006.03.015)
